TESTED_SYSTEM: T1, recombinant purified human IL-12 p70 (human, UniProt P29459 23-219)
T1 sequence 1: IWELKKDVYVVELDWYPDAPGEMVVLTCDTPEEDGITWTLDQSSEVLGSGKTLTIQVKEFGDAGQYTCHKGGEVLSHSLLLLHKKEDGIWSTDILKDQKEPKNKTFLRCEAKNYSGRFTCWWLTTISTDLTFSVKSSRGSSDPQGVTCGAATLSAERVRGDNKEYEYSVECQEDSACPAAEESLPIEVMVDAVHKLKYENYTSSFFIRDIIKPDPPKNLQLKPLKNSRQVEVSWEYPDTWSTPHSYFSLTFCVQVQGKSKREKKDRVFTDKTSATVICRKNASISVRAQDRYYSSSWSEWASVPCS
T1 sequence 2: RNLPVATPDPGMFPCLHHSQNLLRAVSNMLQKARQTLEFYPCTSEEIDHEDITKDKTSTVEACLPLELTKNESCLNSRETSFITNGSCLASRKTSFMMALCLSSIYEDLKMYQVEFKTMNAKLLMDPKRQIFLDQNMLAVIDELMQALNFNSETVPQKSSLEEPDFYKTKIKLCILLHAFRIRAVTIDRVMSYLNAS
ASSAY_METHOD_TEXT: cell-based or functional assay
For each entry below, report its Average IC50 (nM) Human IL-12, PHA blast IFN-γ assay value.
Numbers only, in nM.

Look over these answered cases.
Query: Kindly indicate its recorded Average IC50 (nM) Human IL-12, PHA blast IFN-γ assay. Item: murine anti-human IL-12p40 monoclonal antibody 8E1 (antibody, V domains shown, Murine mAb; also called biotinylated 8E1) VH: EVKLVESGGGLVQPGGSRKLSCAASGFTFSDYGMVWVRQAPGKGLEWVASISSGSSNIYYADTVKGRFTISRDDPNNTLFLQMRSLRSEDTAMYYCARNPYWGQGTTLTVSS VL: DIVMTQSQKFMSTSVGDRVSVTCKASQNVGTNVAWYQQKPGQSPKGLIYSASHRYSGVPDRFAGSGSGTDFTLTISNVQSEDLAEYFCQQYNSYPLTFGGGTKLELKR
Result: 0.19

Query: Write down Average IC50 (nM) Human IL-12, PHA blast IFN-γ assay measured for item murine anti-human IL-12p40 monoclonal antibody 5E8 (antibody, V domains shown, Murine mAb) VH: QIQLVQSGPELKKPGETVKISCKASGYSFTDYSMHWVKQAPGKGLKWMDWINTETGEPTYADDFKGRFAFSLETSASTAYLQINNLKNEDTATYFCSRRRYRAFDYWGQGTTLTVSS VL: SIVMTQSPKFLLVSAGDRVTITCKASQSVSNDVAWYQQKLGQSPKLLIYYASNRYTGVPDRFTGSGYGTDFTFTINTVQAEDLAVYFCQQDYTSPYTFGGGTKLEIQR
Result: 12

Further cases:
Query: Name the recorded Average IC50 (nM) Human IL-12, PHA blast IFN-γ assay of the binder listed here: murine anti-human IL-12p40 monoclonal antibody 4B4 (antibody, V domains shown, Murine mAb) VH: QVTLKESGPGILKPSQTLSLTCSLSGFSLSTSGMGVSWIRQPSGKGLEWLAHIWWDGDSYSNPSLRSRLTISRDTSRNQVFLRIATVDTADTATYYCARRTRVNYAMDYWGQGTSVTVSS VL: SVVMTQTPKFLLVSAGDRVTMTCKASQSVSNDVAWFQQKPGQSPKLLIYYASNRYTGVPDRFTGSGYGTDFTFTISTVQAEDLAVYFCQQDYNSPWTFGGGTKLEIKR
Result: 0.039
